Measured MFI at 50 nM, listed per entry for reference.
- tested.target: PD-1 (Homo sapiens (Human)) (UniProt Q15116)
- Sequence (Q15116 21-288 limits assumed): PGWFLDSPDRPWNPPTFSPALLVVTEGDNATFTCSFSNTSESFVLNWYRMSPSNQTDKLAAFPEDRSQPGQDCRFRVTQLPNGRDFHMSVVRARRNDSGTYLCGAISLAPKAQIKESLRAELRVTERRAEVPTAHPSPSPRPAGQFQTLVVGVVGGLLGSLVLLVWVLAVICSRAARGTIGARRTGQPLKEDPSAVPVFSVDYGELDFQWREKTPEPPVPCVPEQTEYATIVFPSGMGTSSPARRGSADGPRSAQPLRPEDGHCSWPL
- protocol.summary: flow cytometry, Jurkat/PD-1 cells
Number, no unit, nothing else.

Study these solved cases before continuing.
>>> measured("variant PD-L2 IgV-Fc S67L, I86T (Fc fusion, not shown: a dimerising Fc or GST; small tags and cut ends) LFTVTVPKELYIIEHGSNVTLECNFDTGSHVNLGAITASLQKVENDTSPHRERATLLEEQLPLGKALFHIPQVQVRDEGQYQCIITYGVAWDYKYLTLK")
6830
>>> measured("variant PD-L2 IgV-Fc H15Q, T47A, H69L, Q82R, V89D (Fc fusion, not shown: a dimerising Fc or GST; small tags and cut ends) FTVTVPKELYIIEQGSNVTLECNFDTGSHVNLGAITASLQKVENDASPHRERATLLEEQLPLGKASFLIPQVQVRDEGQYRCIIIYGDAWDYKYLTLK")
65600
>>> measured("variant PD-L2 IgV-Fc H15Q, E44D, R76G, I85F (Fc fusion, not shown: a dimerising Fc or GST; small tags and cut ends) LFTVTVPKELYIIEQGSNVTLECNFDTGSHVNLGAITASLQKVDNDTSPHRERATLLEEQLPLGKASFHIPQVQVGDEGQYQCIFIYGVAWDYKYLTLK")
2880
>>> measured("variant PD-L2 IgV-Fc I13V, Q72H, R76G, I86T (Fc fusion, not shown: a dimerising Fc or GST; small tags and cut ends) LFTVTVPKELYIVEHGSNVTLECNFDTGSHVNLGAITASLQKVENDTSPHRERATLLEEQLPLGKASFHIPHVQVGDEGQYQCIITYGVAWDYKYLTLK")
10400
>>> measured("variant PD-L2 IgV-Fc I13V, H15Q, Q82R (Fc fusion, not shown: a dimerising Fc or GST; small tags and cut ends) FTVTVPKELYIVEQGSNVTLECNFDTGSHVNLGAITASLQKVENDTSPHRERATLLEEQLPLGKASFHIPQVQVRDEGQYRCIIIYGVAWDYKYLTLK")
76100
>>> measured("variant PD-L2 IgV-Fc I12V, I13V, H15Q, T47A, Q82R, V89D (Fc fusion, not shown: a dimerising Fc or GST; small tags and cut ends) FTVTVPKELYVVEQGSNVTLECNFDTGSHVNLGAITASLQKVENDASPHRERATLLEEQLPLGKASFHIPQVQVRDEGQYRCIIIYGDAWDYKYLTLK")
61200

Req: Form field: reported MFI at 50 nM of variant PD-L2 IgV-Fc N24D (Fc fusion, not shown: a dimerising Fc or GST; small tags and cut ends) LFTVTVPKELYIIEHGSNVTLECDFDTGSHVNLGAITASLQKVENDTSPHRERATLLEEQLPLGKASFHIPQVQVRDEGQYQCIIIYGVAWDYKYLTLK
Resp: 1410

Req: GET /values?readout=MFI at 50 nM&item= variant PD-L2 IgV-Fc G28V, Q72H, R76G, I86T (Fc fusion, not shown: a dimerising Fc or GST; small tags and cut ends) FTVTVPKELYIIEHGSNVTLECNFDTVSHVNLGAITASLQKVENDTSPHRERATLLEEQLPLGKASFHIPHVQVGDEGQYQCIITYGVAWDYKYLTLK
Resp: 5560

Req: Which MFI at 50 nM is listed for variant PD-L2 IgV-Fc H15Q, V89D (Fc fusion, not shown: a dimerising Fc or GST; small tags and cut ends) FTVTVPKELYIIEQGSNVTLECNFDTGSHVNLGAITASLQKVENDTSPHRERATLLEEQLPLGKASFHIPQVQVRDEGQYQCIIIYGDAWDYKYLTLK ?
Resp: 17700
